biological target: Cytochrome P450 2C9 (Homo sapiens) (UniProt P11712); assay: qHTS Assay for Inhibitors and Substrates of Cytochrome P450 2C9 (AID 883); conditions: recombinant CYP2C9, luciferin-H luminescence, 60 min; series mostly up to 11.4 µM; note: nearly all actives have a fitted effect of over 60% in size
Sequence (P11712 whole entry, looked up): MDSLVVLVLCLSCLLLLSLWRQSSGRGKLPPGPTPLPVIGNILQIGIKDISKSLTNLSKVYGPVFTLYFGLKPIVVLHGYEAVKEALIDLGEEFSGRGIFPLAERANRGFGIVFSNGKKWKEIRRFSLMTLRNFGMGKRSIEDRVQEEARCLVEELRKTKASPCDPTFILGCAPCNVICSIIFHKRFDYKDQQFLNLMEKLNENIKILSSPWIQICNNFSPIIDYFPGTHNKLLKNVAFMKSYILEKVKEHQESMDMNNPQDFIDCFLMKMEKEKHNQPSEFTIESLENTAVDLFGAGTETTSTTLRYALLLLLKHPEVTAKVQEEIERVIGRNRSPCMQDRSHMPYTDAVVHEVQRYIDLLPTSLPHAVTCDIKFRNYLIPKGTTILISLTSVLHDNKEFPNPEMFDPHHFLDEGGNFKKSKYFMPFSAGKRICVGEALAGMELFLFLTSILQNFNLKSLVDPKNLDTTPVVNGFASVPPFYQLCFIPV
Inconclusive results are not listed. Active and inactive are the calls of the source. Calls come from the whole dose curve; as a rule, active = well fitted inhibition curve with a large enough effect; inconclusive = small, poorly fitted or top-dose-only effect; inactive = no such curve, though single readings can be large or run the other way.
Select the matching outcome among True for active, False for inactive

C=CCOC(=O)C(C(C)=O)C(NC(=O)OC)c1cccc(C(F)(F)F)c1 (stereo unspecified); False
COC(=O)NC(c1ccco1)[C@]1(C(C)=O)CCCC1=O (stereo partly specified); False
C=C/C1=C/Cc2ccccc2C(C[N+](=O)[O-])C(C(=O)OC)(C(=O)OC)C1 (stereo unspecified); False

Please let me know the test result on file for COC(=O)NC(c1ccccc1)[C@@]1(C(=O)OC)CCCC1=O (stereo partly specified) .
False

Record lookup: outcome of this test for COC(=O)N1CCc2cc(OC)c(OC)cc2C1Cc1ccc(OC)cc1 (stereo unspecified) ?
False

Query: recorded result category for "CCCNC(=O)OC[C@@H]1O[C@H](CCO/N=C(\C)CCN2CCc3nc(-c4ccccc4)c(-c4ccccc4)cc3C2)C=C[C@@H]1Oc1ccc(OC)cc1" in this test
True

* * *

assay: qHTS for Inhibitors of Plasmodium falciparum (GB4) proliferation (AID 504315); note: nearly all actives have a fitted effect of over 50% in size; conditions: P. falciparum GB4 in erythrocytes, SYBR Green DNA, 72 h; series mostly up to 6.7 µM
Records with an inconclusive call do not appear. Calls of active or inactive are those of the source. Calls come from the whole dose curve; as a rule, active = well fitted inhibition curve with a large enough effect; inconclusive = small, poorly fitted or top-dose-only effect, or effect the other way; inactive = flat fitted curve, though single readings scatter.
Give your call using only these classes: yes = active, no = inactive

Solved entries (count: 8):
COC(=O)CCCC1=CC2=CC(=O)C(C)(OC(=O)c3cccs3)C(=O)C2=CN1Cc1ccccc1 (configuration not stated); no
CC1COc2ccccc2C1=O (configuration not stated); yes
C=C(C)C(=O)c1ccc2c(c1)OCO2; no
COC/C=C/C1=CC2=CC(=O)C(C)(OC(=O)c3cnc4ccccc4n3)C(=O)C2=CN1C1CCCC1 (configuration not stated); no
COc1cc2c(cc1OC)[C@@H]1O[C@](CCCCN3C(=O)c4ccccc4C3=O)(C2)Oc2cc(C)n(-c3ccccc3)c(=O)c21; yes
COC(=O)CCC(=O)OC1(C)C(=O)C=C2C=C(C3CC3)N(C(CO)CO)C=C2C1=O (configuration not stated); no
COC(=O)CCCC1=CC2=C(c3ccccc3)C(=O)C(C)(OC(=O)C3CCCC3)C(=O)C2=CN1CCc1c[nH]c2ccccc12 (configuration not stated); no
COC(=O)C1=C(C(=O)OC)[C@@H]2N(Cc3ccccc3)c3ccccc3[C@@]23CCC(=O)N(CC2CCCCC2)C3=N1; no

State the result this test recorded for "CC#CCN1c2ccccc2[C@]23C[C@@H](C(=O)OC)N(C(=O)OCC)C2=NC(C(=O)OC)=C(C(=O)OC)[C@H]13" .
no

Entry "COC(=O)[C@@]1(C=C2c3ccc(F)cc3[C@@H](OC)[C@@H]2C)[C@@H]2CC=C[C@@H]21" : call = ?
no

Recorded call for "COC(=O)[C@@H]1[C@@H](C)N(CCc2cc(OC)c(OC)c(OC)c2)C(=O)N[C@H]1c1ccccc1" ?
no

What did this assay record as the result for "C[C@@H]1CC[C@H]2C(=O)N(Cc3ccccc3)C[C@H](O)CN2[C@H]1c1ccc(Br)cc1" ?
no
